system: human monocyte-derived macrophages (M0); test: cell shape (eccentricity) Z-score vs DMSO control; higher = more elongated, M2-like morphology; details: 20 µM; 24 h; macrophage state: M0 (M-CSF)
Whole data set: some 3,800 compounds, median “cell shape (eccentricity) Z-score vs DMSO control” near 1.1, cut for the lowest 2% near -4.7. What follows is part of a selection rich in the lowest values, with near analogues and random picks from the rest.
REPORTED_METRIC: cell shape (Z-score)
Write the number on its own, no unit after it.

The cases that follow already have their cell shape (Z-score) on record.
CC1(C)C2CC[C@]3(C)C(C(=O)C=C4[C@H]5C[C@@](C)(C(=O)O)CC[C@]5(C)CC[C@]43C)[C@@]2(C)CC[C@@H]1O (some centres not stated): 0.344
CC(=O)O[C@H]1CC[C@@]2(C)C(C[C@@H](OC(C)=O)[C@]3(C)C2CC[C@@]2(C)[C@H](c4ccoc4)OC(=O)[C@H]4O[C@]423)C1(C)C (some centres not stated): -2.07
CC(=O)Oc1cc2c(c(C)c1OC(C)=O)CC=C1[C@@]2(C)CC[C@@]2(C)C3C[C@](C)(C(=O)O)CC[C@]3(C)CC[C@]12C (some centres not stated): -13.8
CC(=O)O[C@H]1C[C@@H](O)C(C)(C)C2C[C@@H](OC(C)=O)[C@]3(C)C(CC[C@@]4(C)[C@H](c5ccoc5)OC(=O)C5OC543)[C@]21C (some centres not stated): -2.78
CC(=O)OCC(=O)[C@@]1(O)CCC2C3C[C@H](C)C4=CC(=O)C=CC4(C)C3[C@@H](O)CC21C (some centres not stated): -2.52

Problem: Which value of cell shape (Z-score) has been reported for Cc1ccc(O)c(N=Nc2ccccc2)n1 in the records?
Result: -7.89

Problem: Which value of cell shape (Z-score) has been reported for CN1CCN(CCOc2cc(OC3CCOCC3)c3c(Nc4c(Cl)ccc5c4OCO5)ncnc3c2)CC1 in the records?
Result: 5.59

###

Measured cell shape (Z-score), listed per entry.
test system: human monocyte-derived macrophages (M0); test: cell shape (eccentricity) Z-score vs DMSO control; higher = more elongated, M2-like morphology; conditions: 20 µM; 24 h; macrophage state: M0 (M-CSF)
Whole data set: some 3,800 compounds, median “cell shape (eccentricity) Z-score vs DMSO control” near 1.1, cut for the lowest 2% near -4.7. The sample as a whole holds a higher share of the lowest values than the screen did.
Write the number on its own, no unit after it.

CC1OC(O[C@H]2CC[C@@]3(C)C(CC[C@]4(C)C3CC=C3C5CC(C)(C)CC[C@]5(C(=O)OC5OC(CO)C(OC6OC(CO)C(O)C(O)C6O)C(O)C5O)CC[C@]34C)C2(C)C)C(O)C(O)C1OC1OCC(O)(COC2OCC(O)C(OC3OCC(OC4OCC(O)(CO)C4O)C(O)C3O)C2O)C1O (some centres not stated): 0.323

Would you kindly look at the next entry?
Problem: Under human monocyte-derived macrophages (M0): cell shape (Z-score) value of C[C@@H]1O[C@@H](O[C@H]2[C@H](OC(=O)[C@]34CCC(C)(C)C[C@H]3C3=CCC5[C@@]6(C)C[C@H](O)[C@H](O[C@@H]7O[C@H](CO)[C@@H](O)[C@H](O)[C@H]7O)[C@@](C)(CO)C6[C@H](O)C[C@@]5(C)[C@]3(C)CC4)OC[C@H](O)[C@@H]2O)[C@H](O)[C@H](O)[C@H]1O[C@@H]1OC[C@@H](O)[C@H](O[C@@H]2OC[C@](O)(CO)[C@H]2O)[C@H]1O (some centres not stated) ?
Result: -6.49
